The measured values listed here are drawn from patent US6914045B2.

Test system: Staphylococcus sp.
testDescription: in vitro antibacterial evaluation, MIC by broth dilution
Type: cell-based
assayConditions: broth dilution, 18 hours at 35° C.; strain GC 4544
measureName: MIC Staphylococcus aureus (GC 4544) (µg/mL)
Your answer should be a plain number; it is taken to be in µg/mL.

Some solved entries appear below for comparison.
{"compound": "COC1CCC2(C)C(CCC3C2CCC2(C)C(C(C)CCC4OCC5OC(OC6C(CO)OC(Oc7ccc(CC8NC(=O)C(C(C)c9ccccc9)NC(=O)CNC(=O)C(CO)NC(=O)C(C(O)C9CNC(=N)N9C9OC(CO)C(O)C(O)C9O)NC(=O)C(C(O)C9CNC(=N)N9)NC8=O)cc7)C(O)C6O)C(O)C(O)C5O4)CCC32)C1 (stereo not shown)", "studyTarget": "Staphylococcus sp.", "readingUnit": "µg/mL", "observedMeasurement": 32}
{"compound": "CC(c1ccccc1)C1NC(=O)CNC(=O)C(CO)NC(=O)C(C(O)C2CNC(=N)N2C2OC(CO)C(O)C(O)C2O)NC(=O)C(C(O)C2CNC(=N)N2)NC(=O)C(Cc2ccc(OC3OC(CO)C(OC4OC5COC(c6ccc7c(c6)OCCO7)OC5C(O)C4O)C(O)C3O)cc2)NC1=O (stereo not shown)", "studyTarget": "Staphylococcus sp.", "readingUnit": "µg/mL", "observedMeasurement": 2}

Next compound, MIC Staphylococcus aureus (GC 4544) to be filled in.
input: Specify measured MIC Staphylococcus aureus (GC 4544) for CC(c1ccccc1)C1NC(=O)CNC(=O)C(CO)NC(=O)C(C(O)C2CNC(=N)N2C2OC(CO)C(O)C(O)C2O)NC(=O)C(C(O)C2CNC(=N)N2)NC(=O)C(Cc2ccc(OC3OC(CO)C(OC4OC5COC(CC6CCN(C(=O)OCc7ccccc7)CC6)OC5C(O)C4O)C(O)C3O)cc2)NC1=O (stereo not shown) .
output: 2
